Please enter Y where melting point is greater than or equal to 100 °C, and N where it is lower.

Past entries and their recorded results:
[
  {
    "Smiles Code": "Cc1cccc(CN2C(=O)c3cc(COc4ccccc4)nn3C[C@H]2C)n1",
    "Class Name": "Y"
  },
  {
    "Smiles Code": "Cc1nc(CN2CCn3nc(COc4ccccc4)cc3C2=O)ccc1F",
    "Class Name": "Y"
  },
  {
    "Smiles Code": "O=C1c2cc(COc3ccccc3)nn2CCN1Cc1ncccc1F",
    "Class Name": "Y"
  },
  {
    "Smiles Code": "CN(C)c1cccc(CN2CCn3nc(COc4ccccc4)cc3C2=O)n1",
    "Class Name": "N"
  },
  {
    "Smiles Code": "O=C1c2cc(COc3ccccc3)nn2CCN1Cc1ccccc1Cl",
    "Class Name": "Y"
  }
]

Is the recorded value of melting point equal to or greater than 100 °C for this molecule? "Cc1cc(CN2CCn3nc(COc4ccccc4)cc3C2=O)ncc1F" Y

Note, next up: "Cc1ccccc1CN1CCn2nc(COc3ccccc3)cc2C1=O" Y

What about this molecule? "COc1cncc(CN2CCn3nc(COc4ccccc4)cc3C2=O)n1" N

Then this molecule: "COc1nccnc1CN1CCn2nc(COc3cccc(F)c3)cc2C1=O" Y

----------
# System Tested: human mGluR5 (Homo sapiens, UniProt P41594)
# Sequence (P41594 21-1180 isoform P41594-2 limits assumed): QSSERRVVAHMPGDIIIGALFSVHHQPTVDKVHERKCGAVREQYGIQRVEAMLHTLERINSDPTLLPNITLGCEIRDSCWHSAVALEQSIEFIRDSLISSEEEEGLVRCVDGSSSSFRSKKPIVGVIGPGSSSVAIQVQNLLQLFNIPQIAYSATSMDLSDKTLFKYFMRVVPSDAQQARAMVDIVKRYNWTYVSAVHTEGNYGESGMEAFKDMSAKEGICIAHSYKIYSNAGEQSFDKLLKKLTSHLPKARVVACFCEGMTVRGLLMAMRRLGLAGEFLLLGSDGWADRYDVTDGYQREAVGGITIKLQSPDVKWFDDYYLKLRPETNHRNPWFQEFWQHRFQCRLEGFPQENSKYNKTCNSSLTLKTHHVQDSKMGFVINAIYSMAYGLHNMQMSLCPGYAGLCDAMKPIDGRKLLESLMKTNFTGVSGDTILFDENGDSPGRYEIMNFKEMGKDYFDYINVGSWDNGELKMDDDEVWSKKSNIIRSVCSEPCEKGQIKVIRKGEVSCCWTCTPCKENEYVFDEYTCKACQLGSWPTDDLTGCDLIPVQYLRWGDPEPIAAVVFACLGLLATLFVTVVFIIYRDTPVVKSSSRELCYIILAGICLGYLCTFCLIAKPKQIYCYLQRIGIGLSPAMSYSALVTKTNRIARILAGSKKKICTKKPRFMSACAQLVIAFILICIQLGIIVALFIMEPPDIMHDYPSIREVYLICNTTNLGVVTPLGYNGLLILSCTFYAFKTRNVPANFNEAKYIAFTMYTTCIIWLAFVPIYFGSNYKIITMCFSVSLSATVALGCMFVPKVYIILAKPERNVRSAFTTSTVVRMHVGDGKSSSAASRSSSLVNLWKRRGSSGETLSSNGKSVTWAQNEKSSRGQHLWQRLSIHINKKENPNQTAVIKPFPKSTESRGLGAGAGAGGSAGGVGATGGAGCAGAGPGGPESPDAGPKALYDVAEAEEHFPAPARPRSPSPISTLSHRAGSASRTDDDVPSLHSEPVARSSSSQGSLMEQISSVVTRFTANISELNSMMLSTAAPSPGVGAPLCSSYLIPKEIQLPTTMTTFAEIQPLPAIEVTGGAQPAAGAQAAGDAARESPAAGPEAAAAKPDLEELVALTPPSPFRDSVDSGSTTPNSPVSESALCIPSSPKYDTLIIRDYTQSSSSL
# Procedure Summary: Cell-based functional Ca2+ mobilization assay (FDSS), potentiation of glutamate EC20 response
# Run Conditions: H10H cell-line (HEK, recombinant human mGluR5); glutamate EC20; maximum average response at a single concentration, percent of maximal glutamate response
In this section we review reported Emax values for a set of molecules.
The reply should contain only the number, in %.

Guide cases for Emax, answers given:
[
  {
    "Molecule": "O=C1c2cc(COc3cccc(F)c3)nn2CCN1Cc1ncccc1F",
    "System Tested": "human mGluR5 (Homo sapiens, UniProt P41594)",
    "Recorded Metric": "Emax",
    "Unit": "%",
    "Endpoint Value": 65
  },
  {
    "Molecule": "COc1cccc(CN2CCn3nc(COc4ccccc4)cc3C2=O)c1F",
    "System Tested": "human mGluR5 (Homo sapiens, UniProt P41594)",
    "Recorded Metric": "Emax",
    "Unit": "%",
    "Endpoint Value": 71
  },
  {
    "Molecule": "COc1nccnc1CN1CCn2nc(COc3cccc(F)c3)cc2C1=O",
    "System Tested": "human mGluR5 (Homo sapiens, UniProt P41594)",
    "Recorded Metric": "Emax",
    "Unit": "%",
    "Endpoint Value": 63
  },
  {
    "Molecule": "O=C1c2cc(COc3ccccc3)nn2CCN1Cc1ncccc1F",
    "System Tested": "human mGluR5 (Homo sapiens, UniProt P41594)",
    "Recorded Metric": "Emax",
    "Unit": "%",
    "Endpoint Value": 77
  }
]

# query: Emax of entry "O=C1c2cc(COc3ccccc3)nn2CCN1Cc1ccccc1" 69

And for "C[C@@H]1Cn2nc(COc3cccc(C#N)c3)cc2C(=O)N1Cc1ccccc1" ? 59

Now this one: "O=C1c2cc(COc3ccccc3)nn2CCN1Cc1ccc(F)cc1F" 69

Next molecule up: CC1CN(Cc2ccccc2)C(=O)c2cc(COc3ccccc3)nn21 (single isomer, unassigned) 69.5

Input "O=C1c2cc(COc3ccccc3)nn2CCN1Cc1ccccc1Cl" 75

Further, for "COc1ccccc1CN1CCn2nc(COc3ccccc3)cc2C1=O" ? 63.5

----------
# System Tested: human mGluR5 (Homo sapiens, UniProt P41594)
# Procedure Summary: Cell-based functional Ca2+ mobilization assay (FDSS), potentiation of glutamate EC20 response
# Run Conditions: H10H cell-line (HEK, recombinant human mGluR5); positive allosteric modulation in presence of glutamate EC20; concentration in mol/L
# Procedure: Human mGluR5a cDNA in pCMV6-XL6 mammalian expression plasmid was purchased from OriGene Technologies, Inc. (catalogue number SC326357) and subcloned into pcDNA3.1(−). […] After establishment of a fluorescence baseline for about 3 seconds, the compounds of the present invention were added to the cells, and the response in cells was measured. […] Calcium fluorescence measures were recorded as fold over basal fluorescence; raw data was then normalized to the maximal response to glutamate. […]
pEC50: −log10 of the molar value.
Rule: 1 for pEC50 not less than 7, 0 for anything less.

Answered cases to consult:
[
  {
    "Compound": "CC(c1cccnc1)N1CCn2nc(COc3ccccc3)cc2C1=O (stereo not drawn) [Example B13]",
    "Class Name": 0
  },
  {
    "Compound": "O=C1c2cc(COc3ccccc3)nn2CCN1Cc1nc2ccccc2o1 [Example B92]",
    "Class Name": 0
  },
  {
    "Compound": "Cc1ncccc1CN1CCn2nc(COc3ccccc3)cc2C1=O [Example B96]",
    "Class Name": 0
  },
  {
    "Compound": "O=C1c2cc(COc3ccccn3)nn2CCN1Cc1ccccc1 [Example B9]",
    "Class Name": 0
  }
]

Field: next compound
Decide: pEC50 of Cc1cccc(CN2CCn3nc(COc4ccccc4)cc3C2=O)c1 [Example B64] >= 7? 1

----------
Recorded Metric: melting point (°C)
Response body: numeric value in °C, unit text excluded.

Reference set (5 entries):
[
  {
    "Smiles Code": "Cc1cncc(CN2CCn3nc(COc4ccccc4)cc3C2=O)n1",
    "Unit": "°C",
    "melting point": 120.4
  },
  {
    "Smiles Code": "N#Cc1cccc(CN2CCn3nc(COc4ccccc4)cc3C2=O)c1",
    "Unit": "°C",
    "melting point": 117.4
  },
  {
    "Smiles Code": "O=C1c2cc(COc3ccccc3)nn2CCN1Cc1ccc(F)c(F)c1",
    "Unit": "°C",
    "melting point": 133.2
  },
  {
    "Smiles Code": "O=C1c2cc(COc3ccccc3)nn2CCN1Cc1ccccn1",
    "Unit": "°C",
    "melting point": 75.3
  },
  {
    "Smiles Code": "O=C1c2cc(COc3cccc(F)c3)nn2CCN1Cc1ccccc1",
    "Unit": "°C",
    "melting point": 104.9
  }
]

For "COc1ccc(CN2CCn3nc(COc4ccnc(C)c4)cc3C2=O)cc1" , what is its reported melting point? 117.1

And "O=C1c2cc(COc3ccccc3)nn2CCN1Cc1cc(F)ccc1F" ? 113.6

Also need "O=C1c2cc(COc3ccccn3)nn2CCN1Cc1ccccc1" , thanks. 124.7

----------
Please respond with YES when measured melting point is strictly beneath 100 °C, and with NO in all other cases.

Reference set, count: 2
[
  {
    "Smiles Code": "COc1cccc(CN2CCn3nc(COc4ccccc4)cc3C2=O)c1",
    "Class Name": "YES"
  },
  {
    "Smiles Code": "O=C1c2cc(COc3ccccc3F)nn2CCN1Cc1ccccc1",
    "Class Name": "NO"
  }
]

Decide: melting point of "O=C1c2cc(COc3ccccc3)nn2CCN1Cc1cccc(F)c1" strictly below 100 °C? YES

Also need "O=C1c2cc(COc3ccccc3)nn2CCN1Cc1nc2ccccc2s1" , thanks. NO

Param item: "O=C1c2cc(COc3ccccc3)nn2CCN1Cc1ccc(Cl)cc1" NO

Input "CC1(C)CN(Cc2ccccc2)C(=O)c2cc(COc3ccccc3)nn21" NO

Similarly, "Cc1nc(CN2CCn3nc(COc4ccccc4)cc3C2=O)cs1" ? NO

Note, next up: "O=C1c2cc(COc3ccccc3)nn2CCN1Cc1cccnc1" NO

Again, but for "COc1ccc(CN2CCn3nc(COc4cc(C)ccn4)cc3C2=O)cc1" NO

Try this compound too: "Cc1ncccc1CN1CCn2nc(COc3ccccc3)cc2C1=O" NO

Okay, and "O=C1c2cc(COc3ccccc3)nn2CCN1Cc1cccc(Cl)c1" ? NO

// next record "C[C@@H]1Cn2nc(COc3ccccc3)cc2C(=O)N1Cc1ncccc1Cl" NO

Same thing, different compound: "O=C1c2cc(COc3ccccc3)nn2CCCN1Cc1ccccc1" YES

Also need "COc1cccnc1CN1CCn2nc(COc3ccccc3)cc2C1=O" , thanks. NO

Same thing, different compound: "O=C1c2cc(COc3ccc(F)cc3)nn2CCN1Cc1ncccc1Cl" NO

Now try "O=C1c2cc(COc3ccccc3)nn2CCN1Cc1ccc(F)cc1F" . NO

----------
Examples of compounds with documented Emax follow.
# System Tested: human mGluR5 (Homo sapiens, UniProt P41594)
# Procedure Summary: Cell-based functional Ca2+ mobilization assay (FDSS), potentiation of glutamate EC20 response
# Run Conditions: H10H cell-line (HEK, recombinant human mGluR5); glutamate EC20; maximum average response at a single concentration, percent of maximal glutamate response
Number plus unit, in that order.

# count of solved cases: 4
[
  {
    "Smiles Code": "O=C1c2cc(COc3ccccc3)nn2CCN1Cc1nc2ccccc2s1",
    "System Tested": "human mGluR5 (Homo sapiens, UniProt P41594)",
    "Emax": "69%"
  },
  {
    "Smiles Code": "O=C1c2cc(COc3ccccc3)nn2CCN1Cc1nccc2ccccc12",
    "System Tested": "human mGluR5 (Homo sapiens, UniProt P41594)",
    "Emax": "76%"
  },
  {
    "Smiles Code": "O=C1c2cc(COc3ccc(F)cc3)nn2CCN1Cc1ncccc1Cl",
    "System Tested": "human mGluR5 (Homo sapiens, UniProt P41594)",
    "Emax": "71%"
  },
  {
    "Smiles Code": "CC1(C)CN(Cc2ccccc2)C(=O)c2cc(COc3ccccc3)nn21",
    "System Tested": "human mGluR5 (Homo sapiens, UniProt P41594)",
    "Emax": "66%"
  }
]

Proceed to the following item.
What value of measured Emax is listed for "Cc1cccc(CN2CCn3nc(COc4ccc(F)cc4)cc3C2=O)n1" ? 69.5%
